- ASSAY_PROCEDURE: MRT (0 to infinity) in female rat at 2 mg/kg,iv measured upto 24 hrs
- Type: ADME, organism-based
- RUN_PARAMETERS: in vivo
MEASURED_METRIC: MRT inf (min)

CC(=O)O[C@@]12CO[C@@H]1C[C@H](O)[C@@]1(C)C(=O)[C@H](O)C3=C(C)[C@@H](OC(=O)[C@H](OC(=O)CCC(=O)NCCCC[C@H](NC(=O)CC[C@@H](NC(=O)[C@H](C)NC(=O)/C=C/c4ccc(F)cc4Cl)C(N)=O)C(=O)O)[C@@H](NC(=O)OC(C)(C)C)c4ccccc4)C[C@@](O)([C@@H](OC(=O)c4ccccc4)[C@H]21)C3(C)C ... 8.64
